experiment: The drug is tested on Clostridium scindens strain: DSM5676 for biotransformation under anaerobic condition. The drug concentrations were measured over 6 timepoints collected between 0 and 12 hours of incubation by liquid-chromatography-coupled mass spectrometry (LC–MS); type: ADME; design: dose 5 uM, timepoint 0, 1.5, 3, 6, 9, 12 hours; settings: 5 µM
parameter_measured: Bacterial Biotransformation

Cn1cnc([N+](=O)[O-])c1Sc1ncnc2nc[nH]c12 ... Compound metabolized
COc1c(C)c2c(c(O)c1C/C=C(\C)CCC(=O)O)C(=O)OC2 ... Compound NOT metabolized
C[C@@H]1C[C@H]2[C@@H]3CCC4=CC(=O)C=C[C@]4(C)[C@@]3(F)[C@@H](O)C[C@]2(C)[C@@]1(O)C(=O)CO ... Compound metabolized
NS(=O)(=O)c1cc(C(=O)O)c(NCc2ccco2)cc1Cl [FUROSEMIDE] ... Compound NOT metabolized
C[C@@H](NCCCc1cccc(C(F)(F)F)c1)c1cccc2ccccc12 ... Compound NOT metabolized

QUERY: // query Bacterial Biotransformation value for entry `C[C@H]1C[C@@H]2[C@H]([C@@H](O)C[C@@]3(C)[C@H]2CC[C@]3(O)C(=O)CO)[C@@]2(C)C=CC(=O)C=C12`
RESULT: Compound metabolized

QUERY: Input `CCOC(=O)[C@H](CCc1ccccc1)N[C@@H](C)C(=O)N1[C@H](C(=O)O)C[C@@H]2CCC[C@@H]21`
RESULT: Compound NOT metabolized

QUERY: Entry to check: `CCOc1nc2cccc(C(=O)O)c2n1Cc1ccc(-c2ccccc2-c2nnn[nH]2)cc1`
RESULT: Compound NOT metabolized

QUERY: Note, next up: CN(Cc1cnc2nc(N)nc(N)c2n1)c1ccc(C(=O)N[C@@H](CCC(=O)O)C(=O)O)cc1 [METHOTREXATE]
RESULT: Compound NOT metabolized

QUERY: Would you kindly repeat that for `COc1ccc([C@@H]2Sc3ccccc3N(CCN(C)C)C(=O)[C@@H]2OC(C)=O)cc1` ?
RESULT: Compound NOT metabolized

QUERY: Cool, now `CO[C@H]1C[C@@H]2CC[C@@H](C)[C@@](O)(O2)C(=O)C(=O)N2CCCC[C@H]2C(=O)O[C@H]([C@H](C)C[C@@H]2CC[C@@H](O)[C@H](OC)C2)CC(=O)[C@H](C)/C=C(\C)[C@@H](O)[C@@H](OC)C(=O)[C@H](C)C[C@H](C)/C=C/C=C/C=C/1C`
RESULT: Compound metabolized

QUERY: Another molecule to check: `C[C@]12C=CC(=O)C=C1CC[C@@H]1[C@@H]2C(=O)C[C@@]2(C)[C@H]1CC[C@]2(O)C(=O)CO`
RESULT: Compound metabolized

====

test: The drug is tested on Roseburia intestinalis strain: DSM14610 for biotransformation under anaerobic condition. The drug concentrations were measured over 6 timepoints collected between 0 and 12 hours of incubation by liquid-chromatography-coupled mass spectrometry (LC–MS); assay type: ADME; set-up: dose 5 uM, timepoint 0, 1.5, 3, 6, 9, 12 hours; conditions: 5 µM
parameter_measured: Bacterial Biotransformation

C[C@@H]1C[C@H]2[C@@H]3CCC4=CC(=O)C=C[C@]4(C)[C@@]3(F)[C@@H](O)C[C@]2(C)[C@@]1(O)C(=O)CO [DEXAMETHASONE] ... Compound NOT metabolized
C=CC[C@@H]1/C=C(\C)C[C@H](C)C[C@H](OC)[C@H]2O[C@@](O)(C(=O)C(=O)N3CCCC[C@H]3C(=O)O[C@H](/C(C)=C/[C@@H]3CC[C@@H](O)[C@H](OC)C3)[C@H](C)[C@@H](O)CC1=O)[C@H](C)C[C@@H]2OC.O [TACROLIMUS] ... Compound metabolized
C[C@]12C=CC(=O)C=C1CC[C@@H]1[C@@H]2C(=O)C[C@@]2(C)[C@H]1CC[C@]2(O)C(=O)CO [PREDNISONE] ... Compound NOT metabolized
CN(Cc1cnc2nc(N)nc(N)c2n1)c1ccc(C(=O)N[C@@H](CCC(=O)O)C(=O)O)cc1 [METHOTREXATE] ... Compound metabolized

In the following, a different compound is considered.
QUERY: What value of Bacterial Biotransformation has been recorded for this entry: COc1c(C)c2c(c(O)c1C/C=C(\C)CCC(=O)OCCN1CCOCC1)C(=O)OC2 [MYCOPHENOLATE MOFETIL]
RESULT: Compound NOT metabolized

====

experiment: The drug is tested on Enterococcus faecalis strain: ATCC29212 for biotransformation under anaerobic condition. The drug concentrations were measured over 6 timepoints collected between 0 and 12 hours of incubation by liquid-chromatography-coupled mass spectrometry (LC–MS); format: ADME; set-up: dose 5 uM, timepoint 0, 1.5, 3, 6, 9, 12 hours; conditions: 5 µM
parameter_measured: Bacterial Biotransformation

Solved cases (8 shown):
Cn1cnc([N+](=O)[O-])c1Sc1ncnc2nc[nH]c12 ... Compound metabolized
CO[C@H]1C[C@@H]2CC[C@@H](C)[C@@](O)(O2)C(=O)C(=O)N2CCCC[C@H]2C(=O)O[C@H]([C@H](C)C[C@@H]2CC[C@@H](O)[C@H](OC)C2)CC(=O)[C@H](C)/C=C(\C)[C@@H](O)[C@@H](OC)C(=O)[C@H](C)C[C@H](C)/C=C/C=C/C=C/1C ... Compound metabolized
CCCC1O[C@@H]2C[C@H]3[C@@H]4CCC5=CC(=O)C=C[C@]5(C)[C@H]4[C@@H](O)C[C@]3(C)[C@]2(C(=O)CO)O1 (some centres undefined) [BUDESONIDE] ... Compound NOT metabolized
C[C@]12C=CC(=O)C=C1CC[C@@H]1[C@@H]2C(=O)C[C@@]2(C)[C@H]1CC[C@]2(O)C(=O)CO ... Compound NOT metabolized
CN(Cc1cnc2nc(N)nc(N)c2n1)c1ccc(C(=O)N[C@@H](CCC(=O)O)C(=O)O)cc1 [METHOTREXATE] ... Compound NOT metabolized
C[C@@H]1C[C@H]2[C@@H]3CCC4=CC(=O)C=C[C@]4(C)[C@@]3(F)[C@@H](O)C[C@]2(C)[C@@]1(O)C(=O)CO ... Compound NOT metabolized
CCOC(=O)C1=C(COCCN)NC(C)=C(C(=O)OC)C1c1ccccc1Cl (centres undefined) ... Compound NOT metabolized
COc1c(C)c2c(c(O)c1C/C=C(\C)CCC(=O)OCCN1CCOCC1)C(=O)OC2 [MYCOPHENOLATE MOFETIL] ... Compound metabolized

QUERY: Entry `C[C@]12C=CC(=O)C=C1CC[C@@H]1[C@@H]2[C@@H](O)C[C@@]2(C)[C@H]1CC[C@]2(O)C(=O)CO` : reported Bacterial Biotransformation = ?
RESULT: Compound NOT metabolized

QUERY: Please do the same for `C[C@H]1C[C@@H]2[C@H]([C@@H](O)C[C@@]3(C)[C@H]2CC[C@]3(O)C(=O)CO)[C@@]2(C)C=CC(=O)C=C12` as well.
RESULT: Compound NOT metabolized

QUERY: // query: `C[C@]12CCC(=O)C=C1CC[C@@H]1[C@@H]2C(=O)C[C@@]2(C)[C@H]1CC[C@]2(O)C(=O)CO`
RESULT: Compound NOT metabolized

QUERY: Same for NS(=O)(=O)c1cc(C(=O)O)c(NCc2ccco2)cc1Cl [FUROSEMIDE]
RESULT: Compound NOT metabolized

QUERY: Query `CCOc1nc2cccc(C(=O)O)c2n1Cc1ccc(-c2ccccc2-c2nnn[nH]2)cc1` next
RESULT: Compound NOT metabolized

QUERY: Next: CC(C)NCC(O)COc1ccc(CC(N)=O)cc1 (centres undefined)
RESULT: Compound NOT metabolized

QUERY: Try the compound `CNC(=C[N+](=O)[O-])NCCSCc1ccc(CN(C)C)o1`
RESULT: Compound NOT metabolized

QUERY: Please answer likewise for `CCC(C)(C)C(=O)O[C@H]1C[C@@H](C)C=C2C=C[C@H](C)[C@H](CC[C@@H]3C[C@@H](O)CC(=O)O3)[C@H]21`
RESULT: Compound NOT metabolized

QUERY: Check `CCOC(=O)[C@H](CCc1ccccc1)N[C@@H](C)C(=O)N1[C@H](C(=O)O)C[C@@H]2CCC[C@@H]21` too.
RESULT: Compound NOT metabolized

====

experiment: The drug is tested on Akkermansia muciniphila strain: DSM22959 for biotransformation under anaerobic condition. The drug concentrations were measured over 6 timepoints collected between 0 and 12 hours of incubation by liquid-chromatography-coupled mass spectrometry (LC–MS); format: ADME; set-up: dose 5 uM, timepoint 0, 1.5, 3, 6, 9, 12 hours; conditions: 5 µM
parameter_measured: Bacterial Biotransformation

Would you please look over these solved cases?
C[C@]12C=CC(=O)C=C1CC[C@@H]1[C@@H]2C(=O)C[C@@]2(C)[C@H]1CC[C@]2(O)C(=O)CO [PREDNISONE] ... Compound metabolized
CCOC(=O)[C@H](CCc1ccccc1)N[C@@H](C)C(=O)N1[C@H](C(=O)O)C[C@@H]2CCC[C@@H]21 ... Compound NOT metabolized
CCOc1nc2cccc(C(=O)O)c2n1Cc1ccc(-c2ccccc2-c2nnn[nH]2)cc1 ... Compound NOT metabolized
CNC(=C[N+](=O)[O-])NCCSCc1ccc(CN(C)C)o1 [RANITIDINE] ... Compound NOT metabolized

QUERY: For the compound shown here, C[C@]12CCC(=O)C=C1CC[C@@H]1[C@@H]2C(=O)C[C@@]2(C)[C@H]1CC[C@]2(O)C(=O)CO [CORTISONE] , give the reported Bacterial Biotransformation.
RESULT: Compound NOT metabolized

Where these numbers come from: ChEMBL document CHEMBL5724806
